Ref: ChEMBL document CHEMBL5226332

Experiment: Cmax in BALB/c mouse at 10 mg/kg, iv measured after 24 hrs by LC/MS analysis
Type: ADME, organism-based
Set-up: time 24 hrs, dose 10 mg/kg, route iv
Details: in vivo
reported_metric: Cmax (nM)

[1] CN(C)c1ccc2cc(-c3cc(Cl)cc(Cl)c3)c(N)nc2c1
[2] CN(C)c1ccc2cc(-c3cn(C)c4ccccc34)c(N)nc2c1
IN: Select one: 1 or 2 . Criterion: greater recorded Cmax. When you have decided, please share the label of that item.
OUT: 2

###

Assay: Cmax in BALB/c mouse at 10 mg/kg, ip measured after 24 hrs by LC/MS analysis
Type: ADME, organism-based
Design: dose 10 mg/kg, time 24 hrs, route ip
Conditions: in vivo
reported_metric: Cmax (µM)
Just the number please, in µM, no unit attached.

IN: Record request: Cmax value, item `CN(C)c1ccc2cc(-c3cn(C)c4ccccc34)c(N)nc2c1`
OUT: 3.17

###

Experiment: Cmax in BALB/c mouse at 10 mg/kg, po measured after 24 hrs by LC/MS analysis
Type: ADME, organism-based
Design: dose 10 mg/kg, time 24 hrs, route po
Conditions: in vivo
reported_metric: Cmax (nM)
Reply numerically in nM, unit not repeated.

IN: Quick one: Cmax of `CN(C)c1ccc2cc(-c3cn(C)c4ccccc34)c(N)nc2c1` ?
OUT: 1000
